Biological target: T1, Bdf1 bromodomain 1 (GST-tagged, WT) (Saccharomyces cerevisiae (strain ATCC …, UniProt P35817))
T1 chain: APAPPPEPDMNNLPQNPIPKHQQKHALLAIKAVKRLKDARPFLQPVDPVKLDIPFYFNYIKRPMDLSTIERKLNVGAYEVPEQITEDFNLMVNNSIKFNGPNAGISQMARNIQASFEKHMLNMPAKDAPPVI
Assay: histone peptide array probed with recombinant GST-bromodomain, signal normalised to myc peptide control
Non-standard residues stand in square brackets, D forms with d. No end group written: not given here. Lys(Me2) = CN(C)CCCC[C@H](N)C(=O)O; pS = N[C@@H](COP(=O)(O)O)C(=O)O
Measured Quantity: binding score

PRKQLATKAAR[Lys(Me2)][pS]APATGG [H3 16-35]
0
ARTKQTARKSTGGKAPRKQ (A R T Kme3 Q T A Rme2a Kac S T G G K A P R K Q)
0.0142
ARTKQTARKSTGGKAPRKQ (A Rme2s T Kme1 Q T A Rme2a Kme3 S T G G K A P R K Q)
0.00628
[pS]GRGKQGGKARAKAKSRSS [H2a 1-19]
0
PDPAKSAPAPKKGSKKAVT (not fully specified) [H2B 1-19]
0

[a] SGRGKGGKGLGKGGAKRHR (pS G Rme2s G K G G K G L G K G G A K R H R) [H4 1-19]
[b] ARTKQTARKSTGGKAPRKQ (A Rme2s T Kac Q T A Rme2s Kac S T G G K A P R K Q)
Data request: Returns: the label, a or b , whose recorded binding score is the lower number. Answer format: the label of the selected item.
Data returned: a
